Hello, the source for this data is patent US11479533B2, in case you need it.

The entries below are paired with their reported IC50.
# Tested on: ppMlc (T18/S19) levels in A7R5 cells
# protocol.details: A7R5 in-cell ELISA assay (ppMlc)
# Type: cell-based, rat
# experimental.setup: Rattus norvegicus, A7R5, A7R5 cells, Table 2; read-out: pMLC IC50 (nM) A7R5

[
  {
    "compound": "CCNC(C(=O)Nc1ccc(-c2cn[nH]c2)cc1)c1cccc(F)c1 (stereo not drawn) [Example 15]",
    "modifier.sign": "=",
    "IC50 (nM)": 655
  },
  {
    "compound": "CNC(C(=O)Nc1cc(OC)c(-c2cn[nH]c2)cc1F)c1cccc(OC)c1 (stereo not drawn) [Example 66]",
    "modifier.sign": "=",
    "IC50 (nM)": 332
  },
  {
    "compound": "COCC(C)(C)NC(C(=O)Nc1ccc(-c2cn[nH]c2)cc1)c1cccc(OC)c1 (stereo not drawn) [Example 43]",
    "modifier.sign": "=",
    "IC50 (nM)": 1490
  },
  {
    "compound": "COCCNC(C(=O)Nc1ccc(-c2cn[nH]c2)c(OC)c1)c1cccc(OC)c1 (stereo not drawn) [Example 56]",
    "modifier.sign": "=",
    "IC50 (nM)": 115
  },
  {
    "compound": "CNC(=O)c1cccc(C(NC)C(=O)Nc2ccc(-c3cn[nH]c3)cc2)c1 (stereo not drawn) [Example 67]",
    "modifier.sign": "=",
    "IC50 (nM)": 269
  },
  {
    "compound": "CNC(C(=O)Nc1ccc(-c2cn[nH]c2)cc1)c1ccc(F)cc1 (stereo not drawn) [Example 19]",
    "modifier.sign": "=",
    "IC50 (nM)": 355
  },
  {
    "compound": "CNC(C(=O)Nc1ccc(-c2cn[nH]c2)cc1)c1ccc2c(C)n[nH]c2c1 (stereo not drawn) [Example 33]",
    "modifier.sign": "=",
    "IC50 (nM)": 913
  },
  {
    "compound": "CNC(C(=O)Nc1ccc(-c2cn[nH]c2)cc1)c1ccc(N(C)C)cc1 (stereo not drawn) [Example 31]",
    "modifier.sign": "=",
    "IC50 (nM)": 667
  },
  {
    "compound": "CNCCN[C@@H](C(=O)Nc1ccc(-c2cn[nH]c2)cc1)c1cccc(OC)c1 [Example 62]",
    "modifier.sign": "=",
    "IC50 (nM)": 58
  },
  {
    "compound": "CNC(C(=O)Nc1ccc(-c2cn[nH]c2)cc1)c1cccc(C)c1 (stereo not drawn) [Example 14]",
    "modifier.sign": "=",
    "IC50 (nM)": 353
  },
  {
    "compound": "CNC(C(=O)Nc1ccc(-c2cn[nH]c2)cc1)c1ccc2nc(C)[nH]c2c1 (stereo not drawn) [Example 35]",
    "modifier.sign": ">",
    "IC50 (nM)": 5000
  },
  {
    "compound": "CCNC(C(=O)Nc1ccc(-c2cn[nH]c2)cc1)c1ccc(Cl)cc1 (stereo not drawn) [Example 22]",
    "modifier.sign": "=",
    "IC50 (nM)": 169
  },
  {
    "compound": "CNC(C(=O)Nc1ccc(-c2cn[nH]c2)cc1)c1ccc(C(=O)O)cc1 (stereo not drawn) [Example 68]",
    "modifier.sign": ">",
    "IC50 (nM)": 5000
  },
  {
    "compound": "COc1cccc(C(NCCCN(C)C)C(=O)Nc2ccc(-c3cn[nH]c3)cc2)c1 (stereo not drawn) [Example 38]",
    "modifier.sign": "=",
    "IC50 (nM)": 338
  },
  {
    "compound": "CCNC(C(=O)Nc1ccc(-c2cn[nH]c2)cc1)c1ccc(OC)cc1 (stereo not drawn) [Example 10]",
    "modifier.sign": "=",
    "IC50 (nM)": 255
  }
]
